These entries and their values trace back to patent US12258327B2.

Below, each of the molecules is paired with its reported IC50 value.
ASSAY_TARGET: EGFR wildtype (WT) (Homo sapiens, UniProt P00533)
Sequence (P00533 25-1210): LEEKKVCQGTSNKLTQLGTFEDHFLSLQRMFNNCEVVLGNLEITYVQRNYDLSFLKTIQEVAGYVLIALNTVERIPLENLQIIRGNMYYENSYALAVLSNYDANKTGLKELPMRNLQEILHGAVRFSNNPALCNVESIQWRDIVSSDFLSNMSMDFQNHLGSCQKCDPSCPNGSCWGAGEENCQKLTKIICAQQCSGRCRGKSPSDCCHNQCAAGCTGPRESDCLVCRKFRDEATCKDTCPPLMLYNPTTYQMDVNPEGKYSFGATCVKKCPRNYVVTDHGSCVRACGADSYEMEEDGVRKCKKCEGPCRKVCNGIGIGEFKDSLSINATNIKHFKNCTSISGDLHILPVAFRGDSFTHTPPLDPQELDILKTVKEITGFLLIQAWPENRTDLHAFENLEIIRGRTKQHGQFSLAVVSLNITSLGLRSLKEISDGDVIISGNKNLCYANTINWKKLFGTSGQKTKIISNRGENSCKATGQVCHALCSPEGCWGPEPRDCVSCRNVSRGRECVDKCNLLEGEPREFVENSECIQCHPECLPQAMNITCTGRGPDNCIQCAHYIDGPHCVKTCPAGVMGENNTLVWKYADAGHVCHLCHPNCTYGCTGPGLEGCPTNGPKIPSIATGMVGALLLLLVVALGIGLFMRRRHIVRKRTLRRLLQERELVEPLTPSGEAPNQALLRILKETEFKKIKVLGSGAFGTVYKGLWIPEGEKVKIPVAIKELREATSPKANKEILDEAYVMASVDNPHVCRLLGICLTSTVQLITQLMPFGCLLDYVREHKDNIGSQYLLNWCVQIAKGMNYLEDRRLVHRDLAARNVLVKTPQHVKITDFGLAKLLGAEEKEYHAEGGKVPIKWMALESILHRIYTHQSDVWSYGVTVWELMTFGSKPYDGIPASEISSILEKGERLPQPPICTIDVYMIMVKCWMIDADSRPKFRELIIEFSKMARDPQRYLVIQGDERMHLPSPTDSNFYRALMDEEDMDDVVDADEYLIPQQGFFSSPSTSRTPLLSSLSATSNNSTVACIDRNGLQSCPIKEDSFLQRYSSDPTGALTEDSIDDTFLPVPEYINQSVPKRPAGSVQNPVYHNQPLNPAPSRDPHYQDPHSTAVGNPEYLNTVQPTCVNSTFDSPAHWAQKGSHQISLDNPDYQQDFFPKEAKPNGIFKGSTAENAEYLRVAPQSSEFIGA
ASSAY_COMMENT: Biochemical EGFR kinase assay (Lance Ultra TR-FRET), wildtype
RUN_CONDITIONS: IC50 WT (nM) 100 μM ATP, 100 μM ATP

INPUT: Look up IC50: C[C@]1(O)CC[C@@H](Nc2cc(Nc3ccnc(-c4cnn(S(=O)(=O)C5CC5)c4)n3)ncc2-c2csc(C(F)(F)F)n2)CC1 [Example 51]
OUTPUT: > 10000 nM

INPUT: What measured IC50 goes with O=S(=O)(C1CC1)n1cc(-c2nccc(Nc3cc(N[C@H]4CC[C@@H](CO)CC4)c(-c4cc5n(n4)CCCC5)cn3)n2)cn1 [Example 60] ?
OUTPUT: 326 nM

INPUT: Can you look up the measured IC50 of CN(C)CCNC1CCC(Nc2cc(Nc3ccnc(-c4cnn(S(=O)(=O)C5CC5)c4)n3)ncc2-c2csc(C(F)(F)F)n2)CC1 (stereo not drawn) [Example 98] for me?
OUTPUT: 1410 nM

INPUT: What does the data say about its IC50? Entry: CN[C@H]1CC[C@@H](Oc2cc(Nc3ccnc(-c4cnn(S(=O)(=O)C5CC5)c4)n3)ncc2-c2cnn(C(F)F)c2)CC1 [Example 69]
OUTPUT: > 10000 nM

INPUT: // query IC50 value for entry O=S(=O)(C1CC1)n1cc(-c2nccc(Nc3cc(NCC4(CO)COC4)c(-c4ccn(C(F)F)n4)cn3)n2)cn1 [Example 197]
OUTPUT: > 10000 nM

INPUT: Consider the molecule shown here: C[C@]1(O)CC[C@@H](Nc2cc(Nc3nc(-c4cnn(S(=O)(=O)C5CC5)c4)ncc3F)ncc2-c2ccn(C(F)F)n2)CC1 [Example 316] What is its recorded IC50?
OUTPUT: > 10000 nM

###

ASSAY_TARGET: EGFR del19/T790M/C797S (Homo sapiens, UniProt P00533, C797S/DEL746-750/T790M)
Sequence (P00533 with tags, fused parts or gaps DEL746-750/T790M/C797S): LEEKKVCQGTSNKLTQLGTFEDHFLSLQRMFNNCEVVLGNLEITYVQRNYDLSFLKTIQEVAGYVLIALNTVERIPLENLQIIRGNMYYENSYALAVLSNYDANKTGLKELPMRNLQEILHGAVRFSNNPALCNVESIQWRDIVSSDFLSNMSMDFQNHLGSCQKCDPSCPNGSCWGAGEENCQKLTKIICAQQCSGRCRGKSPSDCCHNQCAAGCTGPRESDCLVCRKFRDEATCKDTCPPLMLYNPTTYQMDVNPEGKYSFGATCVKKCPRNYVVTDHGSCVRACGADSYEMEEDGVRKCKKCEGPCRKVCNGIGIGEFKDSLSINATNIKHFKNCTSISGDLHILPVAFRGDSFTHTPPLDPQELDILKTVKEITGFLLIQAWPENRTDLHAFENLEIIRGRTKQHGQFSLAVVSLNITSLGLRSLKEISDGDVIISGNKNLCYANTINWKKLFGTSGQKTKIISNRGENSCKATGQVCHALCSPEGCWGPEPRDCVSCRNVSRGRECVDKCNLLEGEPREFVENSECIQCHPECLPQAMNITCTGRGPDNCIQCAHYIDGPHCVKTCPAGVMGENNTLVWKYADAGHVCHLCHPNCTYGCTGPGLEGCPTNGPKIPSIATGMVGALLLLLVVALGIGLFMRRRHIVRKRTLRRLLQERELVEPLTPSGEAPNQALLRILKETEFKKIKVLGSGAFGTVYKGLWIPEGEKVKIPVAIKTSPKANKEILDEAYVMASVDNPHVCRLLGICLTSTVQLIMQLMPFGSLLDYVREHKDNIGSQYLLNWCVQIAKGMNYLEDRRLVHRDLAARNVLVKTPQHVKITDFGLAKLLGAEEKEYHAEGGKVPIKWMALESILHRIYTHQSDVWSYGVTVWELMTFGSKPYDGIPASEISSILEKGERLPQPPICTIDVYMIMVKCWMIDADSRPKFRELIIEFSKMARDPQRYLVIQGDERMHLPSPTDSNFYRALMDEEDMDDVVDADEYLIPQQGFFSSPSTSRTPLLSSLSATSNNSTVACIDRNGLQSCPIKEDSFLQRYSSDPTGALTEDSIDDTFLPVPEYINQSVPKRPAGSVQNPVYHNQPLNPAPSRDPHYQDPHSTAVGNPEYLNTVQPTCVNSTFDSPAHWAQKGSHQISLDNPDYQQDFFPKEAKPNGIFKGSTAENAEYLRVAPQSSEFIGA
ASSAY_COMMENT: Biochemical EGFR kinase assay (Lance Ultra TR-FRET), triple mutant del19/T790M/C797S
RUN_CONDITIONS: read-out: IC50 del19/T790M/C797S (nM) 100 μM ATP; 100 μM ATP
EXPERIMENTAL_READOUT: IC50 (nM)

{"columns": ["COMPOUND", "EXPERIMENTAL_READOUT", "VALUE_OBSERVED"],
 "data": [
  ["CN[C@H]1CC[C@@H](Nc2cc(Nc3ccnc(-c4cnn(S(=O)(=O)C5CC5)c4)n3)ncc2-c2ccn(C(C)C)n2)CC1 [Example 86]", "IC50", 0.2],
  ["O=S(=O)(C1CC1)n1cc(-c2nccc(Nc3cc(NC[C@H]4CC[C@H](NCC(F)F)CC4)c(-c4ccn(C(F)F)n4)cn3)n2)cn1 [Example 130]", "IC50", 2.1]
]}

I. O=S(=O)(C1CC1)n1cc(-c2nccc(Nc3cc(N[C@H]4CC[C@](O)(C(F)(F)F)CC4)c(-c4ccn(C(F)F)n4)cn3)n2)cn1 [Example 11]
II. CS(=O)(=O)n1cc(-c2nccc(Nc3cc(N[C@H]4CC[C@@](C)(O)CC4)c(-c4ccn(C(F)F)n4)cn3)n2)cn1 [Example 112]
INPUT: Could you please tell me which of these two has the higher IC50: I or II ? Return value: the label identifying the chosen record.
OUTPUT: I
(I: 8.6 nM, II: 2.1 nM)
